From: patent US20230365662A1

biological target: HRgpA-6H (Porphyromonas gingivalis) (UniProt P28784); assay: ELISA, Fab FASEBA supernatant on coated HRgpA-6H
Consider the following binders and their measured Ratio OD(Variant)/OD(WT) readings.

parental mouse (KB001) Fab FASEBA, VL variant S57A (Fab, V domains shown) VH: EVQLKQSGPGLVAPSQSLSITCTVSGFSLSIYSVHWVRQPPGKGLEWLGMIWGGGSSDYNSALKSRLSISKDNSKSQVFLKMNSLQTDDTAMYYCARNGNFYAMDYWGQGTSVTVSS VL: QIVLTQSPAIMSASLGERVTMTCTASSSVSSSFLHWYQQKPGSSPQLWIYSTSNLAAGVPARFSGSGSGTSYSLTISSMEAEDAATYYCHQYHHSPYIYTFGGGTKLEIK    0.988 ratio to WT

Proceed to the following item.
Enquiry: Report measured Ratio OD(Variant)/OD(WT); entry is parental mouse (KB001) Fab FASEBA, VL variant S57R (Fab, V domains shown) VH: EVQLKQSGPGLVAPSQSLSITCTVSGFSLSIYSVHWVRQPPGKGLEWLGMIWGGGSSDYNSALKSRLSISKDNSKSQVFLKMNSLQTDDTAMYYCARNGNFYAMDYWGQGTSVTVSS VL: QIVLTQSPAIMSASLGERVTMTCTASSSVSSSFLHWYQQKPGSSPQLWIYSTSNLARGVPARFSGSGSGTSYSLTISSMEAEDAATYYCHQYHHSPYIYTFGGGTKLEIK
Return: 0.915 ratio to WT
